B1: Osa-1-4 twister ribozyme (parent)
chain: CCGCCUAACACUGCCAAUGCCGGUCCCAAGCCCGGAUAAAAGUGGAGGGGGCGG

Variants of: B1
test_name: self-cleavage, relative activity (ratio to wild type); higher = more cleavage; co-transcriptional
property_name: self-cleavage
# output: bare number, no unit

These recorded examples may help you get a feel for the data.
1. CCGCCUAACACUGCCAAUACCGGUCCCAAGCCCCGAUAAAAGUGGAGGGGGCGG [G19A G34C]
0.25
2. CCGCCUAACAUUGCCAAUGCCGUUCCCAAGCCCGGAUAAAAGUGGAGGGGGCGG [C11U G23U]
0.05
3. CCGCCUAACGCUGCCAAUGCCGGUACCAAGCCCGGAUAAAAGUGGAGGGGGCGG [A10G C25A]
0.07
4. CCGCCUAACACUGCCACUGCCGGUCCCAAGCCCGGAUAAGAGUGGAGGGGGCGG [A17C A40G]
0.28
5. CCGCCUAACACUGCCAAUGCCGGUCCCAAGCCCGGAUAAAAGUGGUGGGGCCGG [A46U G51C]
0.05

Read the next record carefully.
Please fill in: self-cleavage reported for CCGCCUAACACUGCCAAUGCCGGUCCCAAGCCCGGAUAAAAGUGGAGGGGGAUG [C52A G53U] = 0.8
